I'd appreciate it if you could supply kcat values for the items below.
target: Factor X (FX), P00742
Sequence (P00742 whole entry, looked up): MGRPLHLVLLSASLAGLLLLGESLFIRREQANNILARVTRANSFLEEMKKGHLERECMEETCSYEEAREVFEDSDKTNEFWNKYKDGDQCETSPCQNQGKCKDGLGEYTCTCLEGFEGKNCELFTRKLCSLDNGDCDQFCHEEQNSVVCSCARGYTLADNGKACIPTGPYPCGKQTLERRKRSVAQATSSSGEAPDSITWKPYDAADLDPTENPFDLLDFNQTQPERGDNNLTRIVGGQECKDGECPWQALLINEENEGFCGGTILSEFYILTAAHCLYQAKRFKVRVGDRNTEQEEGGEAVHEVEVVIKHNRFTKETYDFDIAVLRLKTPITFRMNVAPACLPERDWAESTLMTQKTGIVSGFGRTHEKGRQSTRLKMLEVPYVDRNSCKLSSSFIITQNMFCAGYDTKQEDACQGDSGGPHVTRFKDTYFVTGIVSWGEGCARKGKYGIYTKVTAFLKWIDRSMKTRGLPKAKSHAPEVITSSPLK
Please make sure the unit comes right after the number.

kcat reported for this protein FIXa-Y155F/R318Y/R338E/R403E (protein) chain 1: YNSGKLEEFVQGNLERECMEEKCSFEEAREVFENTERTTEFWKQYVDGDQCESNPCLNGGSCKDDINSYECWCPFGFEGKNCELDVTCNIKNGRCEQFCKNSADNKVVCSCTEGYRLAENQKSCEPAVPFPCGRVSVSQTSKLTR chain 2: VVGGEDAKPGQFPWQVVLNGKVDAFCGGSIVNEKWIVTAAHCVETGVKITVVAGEHNIEETEHTEQKRNVIRIIPHHNYNAAINKYNHDIALLELDEPLVLNSYVTPICIADKEYTNIFLKFGSGYVSGWGRVFHKGYSALVLQYLRVPLVDRATCLESTKFTIYNNMFCAGFHEGGRDSCQGDSGGPHVTEVEGTSFLTGIISWGEECAMKGKYGIYTKVSEYVNWIKEKTKLT : 5.1 s⁻¹

kcat reported for this protein FIXa variant D104N/K106S/K247N/N249S/R318Y/R338E/R403E/E410N (protein) chain 1: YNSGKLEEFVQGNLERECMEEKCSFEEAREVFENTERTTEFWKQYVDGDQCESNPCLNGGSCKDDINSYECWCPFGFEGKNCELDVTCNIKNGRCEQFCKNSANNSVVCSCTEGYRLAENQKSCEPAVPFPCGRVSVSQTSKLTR chain 2: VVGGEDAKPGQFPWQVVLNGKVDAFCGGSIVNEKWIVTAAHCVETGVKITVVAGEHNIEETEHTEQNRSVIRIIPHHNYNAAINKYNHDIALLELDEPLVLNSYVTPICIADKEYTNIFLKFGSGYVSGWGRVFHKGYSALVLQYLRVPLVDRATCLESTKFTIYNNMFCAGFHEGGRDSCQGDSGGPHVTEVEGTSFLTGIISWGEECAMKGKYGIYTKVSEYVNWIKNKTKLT : 5.2 s⁻¹

kcat reported for this protein FIXa variant Y155F/K247N/N249S/R318Y/R338E/R403E/E410N (protein) chain 1: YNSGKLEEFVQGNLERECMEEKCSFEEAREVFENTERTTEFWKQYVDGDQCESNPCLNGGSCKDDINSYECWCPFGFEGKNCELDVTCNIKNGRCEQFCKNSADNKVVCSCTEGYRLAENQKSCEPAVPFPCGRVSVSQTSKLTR chain 2: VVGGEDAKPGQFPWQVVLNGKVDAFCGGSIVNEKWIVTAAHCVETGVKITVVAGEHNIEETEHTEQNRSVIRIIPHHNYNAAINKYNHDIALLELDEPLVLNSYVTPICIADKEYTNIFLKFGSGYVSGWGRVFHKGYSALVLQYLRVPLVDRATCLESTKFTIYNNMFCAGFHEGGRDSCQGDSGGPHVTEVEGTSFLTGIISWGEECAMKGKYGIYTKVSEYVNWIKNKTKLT : 6.2 s⁻¹

kcat reported for this protein FIXa-Y155F/R318Y/R338E/E410N (protein) chain 1: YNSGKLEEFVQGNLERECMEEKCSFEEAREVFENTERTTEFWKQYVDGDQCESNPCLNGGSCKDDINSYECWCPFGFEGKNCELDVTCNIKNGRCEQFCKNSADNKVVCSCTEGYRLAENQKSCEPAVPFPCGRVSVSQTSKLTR chain 2: VVGGEDAKPGQFPWQVVLNGKVDAFCGGSIVNEKWIVTAAHCVETGVKITVVAGEHNIEETEHTEQKRNVIRIIPHHNYNAAINKYNHDIALLELDEPLVLNSYVTPICIADKEYTNIFLKFGSGYVSGWGRVFHKGYSALVLQYLRVPLVDRATCLESTKFTIYNNMFCAGFHEGGRDSCQGDSGGPHVTEVEGTSFLTGIISWGEECAMKGKYGIYTKVSRYVNWIKNKTKLT : 5.6 s⁻¹
